Target: UniProt Q9NR97
Sequence (Q9NR97 27-1041): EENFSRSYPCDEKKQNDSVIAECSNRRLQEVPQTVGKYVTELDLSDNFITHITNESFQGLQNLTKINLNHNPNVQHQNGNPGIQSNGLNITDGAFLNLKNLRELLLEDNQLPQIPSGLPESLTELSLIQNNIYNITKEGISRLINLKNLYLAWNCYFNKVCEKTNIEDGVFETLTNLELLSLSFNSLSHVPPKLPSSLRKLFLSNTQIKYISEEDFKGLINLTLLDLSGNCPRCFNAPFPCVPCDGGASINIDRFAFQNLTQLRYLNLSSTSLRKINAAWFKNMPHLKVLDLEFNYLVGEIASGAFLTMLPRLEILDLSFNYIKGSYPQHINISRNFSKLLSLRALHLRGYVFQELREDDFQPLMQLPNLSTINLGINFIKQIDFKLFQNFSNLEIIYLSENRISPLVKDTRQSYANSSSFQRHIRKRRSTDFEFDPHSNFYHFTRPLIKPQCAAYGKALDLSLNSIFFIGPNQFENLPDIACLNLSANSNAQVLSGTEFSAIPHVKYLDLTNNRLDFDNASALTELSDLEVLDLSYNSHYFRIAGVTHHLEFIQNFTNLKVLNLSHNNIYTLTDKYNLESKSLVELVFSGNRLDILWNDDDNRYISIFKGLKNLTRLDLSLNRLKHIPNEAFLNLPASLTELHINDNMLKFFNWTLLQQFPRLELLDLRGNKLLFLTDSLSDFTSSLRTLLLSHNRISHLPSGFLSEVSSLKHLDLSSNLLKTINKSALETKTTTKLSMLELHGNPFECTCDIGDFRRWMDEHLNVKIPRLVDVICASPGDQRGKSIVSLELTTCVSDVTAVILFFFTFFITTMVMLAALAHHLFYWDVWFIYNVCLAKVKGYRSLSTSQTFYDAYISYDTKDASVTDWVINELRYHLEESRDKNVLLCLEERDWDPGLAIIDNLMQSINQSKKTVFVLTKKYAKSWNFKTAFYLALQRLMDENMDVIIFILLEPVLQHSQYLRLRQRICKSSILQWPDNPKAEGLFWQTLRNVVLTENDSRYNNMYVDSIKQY
Assay: TLR8 inhibition reporter assay (HEK-Blue SEAP reporter, R848 stimulation)
Details: HEK-Blue cells overexpressing human TLR8, SEAP reporter, R848 15.9 μM, 22 hour incubation
So basically: is IC50 under 10 nM? Then T. Not under? Then F.

                                   molecule  assigned_label
0  Cc1c(-c2[nH]c3ccc(C4CCN(CCC(F)(F)F)CC4)cc3c2C(C)C)cn(C)c(=O)c1Cl               F
1  CC(C)c1c(-c2ccc(=O)n(C)c2)[nH]c2ccc(C3CCN(C4CCOC4)CC3)cc12 (stereo not shown)               F
2  CNC(=O)CN1CCC(c2ccc3[nH]c(-c4cc(C)c(=O)n(C)n4)c(C(C)C)c3c2)CC1               F

Ask | A record lists Cc1c(-c2[nH]c3ccc(C4CCN(C(C)C(N)=O)CC4)cc3c2C(C)C)cn(C)c(=O)c1Cl (stereo not shown) . Is its IC50 below 10 nM?
Reply | T

Ask | IC50 under 10 nM? Item: "CCCN1CCC(c2ccc3[nH]c(-c4cc(-c5cnc(C6CC6)nc5)c(=O)n(C)c4)c(C(C)C)c3c2)CC1"
Reply | F

Ask | Here's an entry: "CC(C)c1c(-c2cc(C(F)(F)F)c(=O)n(C)c2)[nH]c2ccc(C3CCNCC3)cc12" . Is its IC50 below 10 nM?
Reply | F

Ask | Determine if "COCCn1cc(-c2[nH]c3ccc(C4CCN(CC(C)C)CC4)cc3c2C(C)C)cc(C)c1=O" shows IC50 strictly lower than 10 nM.
Reply | T
